target-of-assay: MCR-1 (Homo sapiens, UniProt Q01726)
Construct: expressed in transfected cells; host or cells: HEK 293
Sequence (Q01726 whole entry): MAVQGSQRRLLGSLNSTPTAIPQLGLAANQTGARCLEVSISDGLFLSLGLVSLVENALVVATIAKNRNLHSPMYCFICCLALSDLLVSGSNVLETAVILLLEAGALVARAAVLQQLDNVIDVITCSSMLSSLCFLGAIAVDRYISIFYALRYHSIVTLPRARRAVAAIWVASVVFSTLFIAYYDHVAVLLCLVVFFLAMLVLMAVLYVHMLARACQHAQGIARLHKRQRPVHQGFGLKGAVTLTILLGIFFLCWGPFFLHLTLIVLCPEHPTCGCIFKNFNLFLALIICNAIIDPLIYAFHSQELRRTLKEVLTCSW
test-details: Melanocortin receptor binding assay, competition with 125I-HP 467, HEK 293 cells expressing hMCR-1
measurement-context: displacement of 125I-HP 467 at 10 μM isoquinoline compound; first of duplicate
metric-name: % Disp. MC-1 10 μM (%)

// worked examples, % Disp. MC-1 10 μM included
compound: CNC(CN)CN1Cc2ccccc2C(CNC2CCCCC2)C1c1ccc(F)c(F)c1 (stereo not shown) [TRG 2405-117]
result-units: %
assay-result: 40.9

compound: NCCN1Cc2ccccc2C(CNC2CCCCC2)C1c1ncc[nH]1 (stereo not shown) [TRG 2405-18]
result-units: %
assay-result: 35.9

compound: CNC(CN)CN1Cc2ccccc2C(CNC2CCCCC2)C1c1cc(O)cc(O)c1 (stereo not shown) [TRG 2405-119]
result-units: %
assay-result: 25.9

compound: NCCN1Cc2ccccc2C(CNC2CCCCC2)C1c1ccccc1Br (stereo not shown) [TRG 2405-12]
result-units: %
assay-result: 38.7

I: NCCN1Cc2ccccc2C(CNC2CCCCC2)C1c1c(F)cccc1Cl (stereo not shown) [TRG 2405-14]
II: NCCN1Cc2ccccc2C(CNC2CCCCC2)C1c1cc(Cl)cc(Cl)c1Cl (stereo not shown) [TRG 2405-7]
Form field 'greater % Disp. MC-1 10 μM' accepts I or II ; which applies? Record your answer as the label of the chosen record.
II
(II: 50.3%, I: 34.2%)

A: CNC(CN)CN1Cc2ccccc2C(CNC2CCCCC2)C1c1ccc2c(c1)OCCO2 (stereo not shown) [TRG 2405-93]
B: CNC(CN)CN1Cc2ccccc2C(CNC2CCCCC2)C1c1ccccc1CN (stereo not shown) [TRG 2405-105]
Lowest % Disp. MC-1 10 μM? choose A or B Record your answer as the label of the chosen record.
B
(B: 20.2%, A: 43.2%)

---

target-of-assay: MCR-1 (Homo sapiens, UniProt Q01726)
Construct: expressed in transfected cells; host or cells: HEK 293
test-details: Melanocortin receptor binding assay, competition with 125I-HP 467, HEK 293 cells expressing hMCR-1
measurement-context: inhibition of binding of 125I-HP 467, HEK 293 cells expressing MCR-1; TRG 2414 library; read-out: MC-1 IC50
metric-name: IC50 (µM)

compound: NCC(CCCCN1Cc2ccccc2C(CNCc2ccccc2)C1c1ccc(Oc2ccccc2)cc1)NCCc1ccccc1 (stereo not shown)
IC50, µM: 9.42
--
compound: NCC(N)CCCCN1Cc2ccccc2C(CNCc2ccccc2C(F)(F)F)C1c1ccc(Oc2ccccc2)cc1 (stereo not shown)
IC50, µM: 8.13
--
compound: COc1ccc(CNCC2c3ccccc3CN(CCCCC(CN)NCc3ccccc3)C2c2cccc(Oc3ccccc3)c2)cc1 (mixture of isomers)
IC50, µM: 8.13
--
compound: COc1ccc(CCNCC2c3ccccc3CN(CCCCC(CN)NCCc3ccccc3)C2c2cc(C(F)(F)F)cc(C(F)(F)F)c2)cc1 (stereo not shown)
IC50, µM: 10.5

---

target-of-assay: MCR-4 (Homo sapiens, UniProt P32245)
Construct: expressed in transfected cells; host or cells: HEK 293
Sequence (P32245 whole entry): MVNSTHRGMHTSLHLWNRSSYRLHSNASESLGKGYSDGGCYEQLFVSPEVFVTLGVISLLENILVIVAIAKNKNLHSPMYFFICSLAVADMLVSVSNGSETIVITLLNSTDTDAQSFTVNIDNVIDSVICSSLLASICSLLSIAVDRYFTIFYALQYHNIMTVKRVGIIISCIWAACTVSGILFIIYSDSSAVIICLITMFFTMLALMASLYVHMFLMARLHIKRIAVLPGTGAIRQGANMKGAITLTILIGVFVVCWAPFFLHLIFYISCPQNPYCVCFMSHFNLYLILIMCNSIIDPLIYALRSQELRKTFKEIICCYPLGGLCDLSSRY
test-details: Melanocortin receptor binding assay, competition with 125I-HP 467, HEK 293 cells expressing hMCR-4
measurement-context: inhibition of binding of 125I-HP 467, HEK 293 cells expressing MCR-4; TRG 2414 library; read-out: MC-4 IC50
pIC50: −log10 of the molar value.
metric-name: pIC50

// worked examples, pIC50 included
compound: CCOc1ccccc1CNCC1c2ccccc2CN(CCCCC(CN)NCCc2ccccc2)C1c1cccc(Oc2ccccc2)c1 (stereo not drawn)
metric-name: pIC50
assay-result: 4.79
//
compound: COc1ccc(CNCC2c3ccccc3CN(CCCCC(CN)NCC(C)c3ccc(CC(C)C)cc3)C2c2cc(C(F)(F)F)cc(C(F)(F)F)c2)cc1 (stereo not drawn)
metric-name: pIC50
assay-result: 4.34
//
compound: CCCOc1ccc(C2C(CNCc3ccccc3C(F)(F)F)c3ccccc3CN2CCCCC(CN)NCc2ccccc2)cc1 (stereo not drawn)
metric-name: pIC50
assay-result: 4.65
//
compound: NCC(CCCCN1Cc2ccccc2C(CNCCc2cccc(Cl)c2)C1c1cccc(Oc2ccccc2)c1)NCc1ccccc1 (stereo not drawn)
metric-name: pIC50
assay-result: 5.28
//
compound: NCC(CCCCN1Cc2ccccc2C(CNC2CCCCCC2)C1c1ccc(Cl)cc1Cl)NCCc1ccccc1 (stereo not drawn)
metric-name: pIC50
assay-result: 5.35

1: COc1ccc(CNCC2c3ccccc3CN(CCCCC(CN)NCc3ccccc3)C2c2cccc(Oc3ccccc3)c2)cc1 (mixture of isomers)
2: COc1ccc(CNCC2c3ccccc3CN(CCCCC(CN)NCc3ccccc3)C2c2ccc(Oc3ccccc3)cc2)cc1 (stereo not drawn)
Lowest pIC50? choose 1 or 2 Record your answer as the label of the chosen record.
2

P: NCC(CCCCN1Cc2ccccc2C(CNCc2ccccc2)C1c1ccc(Cl)cc1Cl)NCc1ccccc1 (stereo not drawn)
Q: CCCOc1ccc(C2C(CNCCc3cccc(Cl)c3)c3ccccc3CN2CCCCC(N)CN)cc1 (stereo not drawn)
Lowest pIC50? choose P or Q Record your answer as the label of the chosen record.
P

---

target-of-assay: MCR-4 (Homo sapiens)
Construct: expressed in transfected cells; host or cells: HEK 293
test-details: Melanocortin receptor binding assay, competition with 125I-HP 467, HEK 293 cells expressing hMCR-4
measurement-context: inhibition of binding of 125I-HP 467, HEK 293 cells expressing MCR-4; read-out: MC-4 IC50
pIC50: −log10 of the molar value.
metric-name: pIC50

compound: CCCCCc1ccc(C2C(CO)c3ccccc3CN2CCCC(CN)NCCC2CCCCC2)cc1 (stereo not drawn)
target-of-assay: MCR-4 (Homo sapiens)
pIC50: 4.86

compound: CCCCNC(CN)CCCN1Cc2ccccc2C(CNCCc2ccccc2)C1c1ccc(NCC)cc1 (stereo not drawn)
target-of-assay: MCR-4 (Homo sapiens)
pIC50: 6.23

compound: CCNc1ccc(C2C(CNC3CCCCC3)c3ccccc3CN2CCCC(CN)NCCC2CCCCC2)cc1 (stereo not drawn)
target-of-assay: MCR-4 (Homo sapiens)
pIC50: 5.80

compound: CCNc1ccc(C2C(CNCCc3ccccc3)c3ccccc3CN2CCCC(CN)NCC2CC2CNCCc2ccccc2)cc1 (stereo not drawn)
target-of-assay: MCR-4 (Homo sapiens)
pIC50: 5.63

compound: CCNc1ccc(C2C(CN)c3ccccc3CN2CCCC(CN)NCC2CC2CNCCc2ccccc2)cc1 (stereo not drawn)
target-of-assay: MCR-4 (Homo sapiens)
pIC50: 5.39

1: CCNc1ccc(C2C(CN)c3ccccc3CN2CCCC(CN)NCCc2ccc(Br)cc2)cc1 (stereo not drawn)
2: CCCCNc1ccc(C2C(CN)c3ccccc3CN2CCCC(CN)NCC)cc1 (stereo not drawn)
3: CCOc1ccc(C2C(CNCCc3ccccc3)c3ccccc3CN2CCCCC(CN)NC)cc1 (stereo not drawn)
Arrange the 3 entries by pIC50 so the values rise. Provide the ranking by listing each label in its place in the requested order.
2, 1, 3

---

target-of-assay: MCR-1 (Homo sapiens)
Construct: expressed in transfected cells; host or cells: HEK 293
test-details: Melanocortin receptor binding assay, competition with 125I-HP 467, HEK 293 cells expressing hMCR-1
measurement-context: inhibition of binding of 125I-HP 467, HEK 293 cells expressing MCR-1; read-out: MC-1 IC50
metric-name: IC50 (nM)

compound: CCOc1ccc(C2C(CNCCc3ccccc3)c3ccccc3CN2CCCC(CN)NC)cc1 (stereo not shown)
target-of-assay: MCR-1 (Homo sapiens)
result-units: nM
assay-result: 160

a: CCCCCc1ccc(C2C(CNCCc3ccccc3)c3ccccc3CN2CCCCC(CN)NCCc2ccccc2)cc1 (stereo not shown)
b: CCNc1ccc(C2C(CN)c3ccccc3CN2CCCC(CN)NCCc2ccc(OC)cc2)cc1 (stereo not shown)
Lowest IC50? choose a or b Record your answer as the label of the chosen record.
b

---

target-of-assay: MCR-4 (Homo sapiens, UniProt P32245)
Construct: expressed in transfected cells; host or cells: HEK 293
test-details: Melanocortin receptor binding assay, competition with 125I-HP 467, HEK 293 cells expressing hMCR-4
measurement-context: inhibition of binding of 125I-HP 467, HEK 293 cells expressing MCR-4; TRG 2414 library; read-out: MC-4 IC50
pIC50: −log10 of the molar value.
metric-name: pIC50

// worked examples, pIC50 included
compound: NCC(CCCCN1Cc2ccccc2C(CNC2CCCCC2)C1c1cc(C(F)(F)F)cc(C(F)(F)F)c1)NCc1ccccc1 (stereo not shown)
pIC50: 5.30
--
compound: COc1ccc(CNCC2c3ccccc3CN(CCCCC(CN)NCCc3ccccc3)C2c2cc(C(F)(F)F)cc(C(F)(F)F)c2)cc1 (stereo not shown)
pIC50: 5.16

I: CCCOc1ccc(C2C(CNCc3ccccc3OCC)c3ccccc3CN2CCCCC(CN)NCc2ccccc2)cc1 (stereo not shown)
II: COc1cccc(CNCC2c3ccccc3CN(CCCCC(N)CN)C2c2ccc(Cl)cc2Cl)c1 (stereo not shown)
Form field 'greater pIC50' accepts I or II ; which applies? Record your answer as the label of the chosen record.
II
